- target-or-test-system: mouse BLyS protein (mouse, UniProt Q9WU72 69-309)
- Sequence (Q9WU72 69-309): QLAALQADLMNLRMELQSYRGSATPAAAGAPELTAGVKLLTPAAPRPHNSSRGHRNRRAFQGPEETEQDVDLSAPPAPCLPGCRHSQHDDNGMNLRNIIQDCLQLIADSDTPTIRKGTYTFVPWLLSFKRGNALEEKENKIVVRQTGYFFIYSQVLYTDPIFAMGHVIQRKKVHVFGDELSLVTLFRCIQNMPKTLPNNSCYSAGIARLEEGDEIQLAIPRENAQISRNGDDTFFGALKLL
- assay-overview: cell-based or functional assay
We begin with a simple list: items and their reported mouse B lymphocyte proliferation (OD450 nm), antibody 0 nM.
Enter your answer as a number in OD450 nm; do not include the unit.

As a guide, the following entries are already answered.
Enquiry: Give reported mouse B lymphocyte proliferation (OD450 nm), antibody 0 nM value for L9G7 (antibody, V domains shown, From a human naive scFv phage library; also called human BLyS antibody L9G7) VH: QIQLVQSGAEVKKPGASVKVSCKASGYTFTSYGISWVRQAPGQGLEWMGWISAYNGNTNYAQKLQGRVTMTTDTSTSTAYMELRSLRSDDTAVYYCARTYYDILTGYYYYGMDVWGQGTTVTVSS VL: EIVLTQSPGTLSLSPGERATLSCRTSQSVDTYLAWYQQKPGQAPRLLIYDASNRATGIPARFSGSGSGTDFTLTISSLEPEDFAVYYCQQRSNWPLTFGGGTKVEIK
Return: 2100

Enquiry: Give reported mouse B lymphocyte proliferation (OD450 nm), antibody 0 nM value for 2-1G11 (antibody, V domains shown, From a human naive scFv phage library; also called human BLyS antibody 2-1G11) VH: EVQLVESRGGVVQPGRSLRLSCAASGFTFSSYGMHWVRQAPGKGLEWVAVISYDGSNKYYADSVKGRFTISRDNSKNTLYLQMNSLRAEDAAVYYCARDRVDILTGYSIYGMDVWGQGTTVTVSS VL: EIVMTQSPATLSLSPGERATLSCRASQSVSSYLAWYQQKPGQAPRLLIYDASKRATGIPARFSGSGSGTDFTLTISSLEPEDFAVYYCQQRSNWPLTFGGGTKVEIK
Return: 2320

Note: attention shifts to another entry.
Enquiry: Give reported mouse B lymphocyte proliferation (OD450 nm), antibody 0 nM value for 89A2G5E7 (antibody, V domains shown, Mouse hybridoma monoclonal antibody purified on Protein G) VH: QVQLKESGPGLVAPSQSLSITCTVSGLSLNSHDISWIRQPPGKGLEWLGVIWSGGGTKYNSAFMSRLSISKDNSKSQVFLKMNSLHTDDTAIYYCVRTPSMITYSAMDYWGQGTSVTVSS VL: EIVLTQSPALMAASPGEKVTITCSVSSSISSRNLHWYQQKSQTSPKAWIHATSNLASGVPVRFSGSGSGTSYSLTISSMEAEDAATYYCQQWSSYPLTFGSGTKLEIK
Return: 2090

FYI, the data here is from patent US20210347873A1.
